Measured koff of individual entries
- test target: T1, recombinant mouse soluble gpNMB (recombinant mouse gpNMB-FLAG-His) (mouse, UniProt Q99P91 23-502)
- T1 sequence: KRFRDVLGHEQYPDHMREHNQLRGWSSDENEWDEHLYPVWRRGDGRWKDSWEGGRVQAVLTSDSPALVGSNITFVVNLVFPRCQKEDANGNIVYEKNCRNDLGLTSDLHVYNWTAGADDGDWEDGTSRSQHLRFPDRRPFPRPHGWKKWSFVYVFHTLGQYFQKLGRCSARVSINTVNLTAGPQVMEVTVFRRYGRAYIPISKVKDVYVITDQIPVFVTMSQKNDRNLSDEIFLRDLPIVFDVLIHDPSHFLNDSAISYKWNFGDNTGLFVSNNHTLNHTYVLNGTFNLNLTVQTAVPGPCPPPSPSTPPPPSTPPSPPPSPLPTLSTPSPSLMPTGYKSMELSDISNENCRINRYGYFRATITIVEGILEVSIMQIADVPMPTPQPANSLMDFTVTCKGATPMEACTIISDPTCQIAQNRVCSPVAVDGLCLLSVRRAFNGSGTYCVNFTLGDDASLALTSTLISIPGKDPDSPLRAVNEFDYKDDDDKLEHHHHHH
- procedure details: SPR, antibody 100 nM over captured gpNMB-FLAG-His, 25C
measured quantity: koff (s⁻¹)

{"binder": "GPN11-10 (antibody, V domains shown, monoclonal with mouse IgG constant regions) VH: QVNLLQSGAALVKPGASVRLSCKTSGYTFTDCYIHWVRQSHGKSLEWIGFINPNSGYTFYNEKFKSKATLTVAKSTNTAYMELSRLTSEDSATYFCTRGDYYTSNLYDWFAYWGQGTLVTVSS VL: DTVMTQSPASMSTSVGERVTVNCKASQTVGTVVAWFQQKPGQSPKRLIYWATNRHTGVPDRFTGSGFGRDFSLTISNVEAEDLAVYYCLQYGSVPPTFGGGTKLELK", "reported": 0.00037}
{"binder": "GPN05-1 (antibody, V domains shown, monoclonal with mouse IgG constant regions) VH: QVQLQQSGAELVRPGTSVKVSCKASGYAFSNHLIEWVKQRPGQGLEWIGVINPGSGGTNYIEKFKGKATLTADKSSSTAYMQLSSLTSDDSAVYFCARGANWDVGFAYWGQGTLVTVSA VL: EIQMTQSPSSMSASLGDRITITCQATQDIVKNLNWYQQKPGKPPSFLIYYATELAEGVPSRFSGSGSGSDFSLTISNLESEDFADYYCLQFHEFPRTFGGGTKLEIK", "reported": 0.0013}
